System Under Test: Schistosoma mansoni thioredoxin glutathione reductase (TGR)
Protocol Notes: qHTS Assay for the Inhibitors of Schistosoma Mansoni Peroxiredoxins; note: nearly all actives have a fitted effect of over 60% in size
Condition Parameters: purified TGR, DTNB reduction, TNB absorbance 405 nm; series mostly up to 114 µM
In all, about 360,000 compounds went through this assay and about 11,000 (3.1%) were called active. Inconclusive results (about 4%) are left out. Calls come from the whole dose curve; as a rule, active = well fitted inhibition curve with a large enough effect; inconclusive = small, poorly fitted or top-dose-only effect; inactive = no such curve, though single readings can be large or run the other way. This excerpt belongs to a sample that is enriched for actives.
Use one of these outcomes when replying: active, inactive

Which outcome did this test record for the compound O=C(Nc1nc2c(s1)CCCC2)c1ccccc1F ? inactive

Which outcome did this test record for the compound O=C(CCS(=O)(=O)c1ccccc1)NC1CCCC1 ? inactive

Which outcome did this test record for the compound S=C(Nc1cccnc1)Nc1ccccn1 ? inactive

Which outcome did this test record for the compound CCCCCC(O)(CCN1CCCCC1)c1ccccc1 (stereo unspecified) ? active

Which outcome did this test record for the compound CC1CCCN(S(=O)(=O)c2ccc(C(=O)Nc3nnc(-c4ccncc4)o3)cc2)C1 (stereo unspecified) ? inactive

Which outcome did this test record for the compound Cc1cc(NC(=O)CCS(=O)(=O)c2ccc(F)cc2)no1 ? active

* * *

System Under Test: Schistosoma mansoni thioredoxin glutathione reductase (TGR)
Protocol Notes: qHTS Assay for the Inhibitors of Schistosoma Mansoni Peroxiredoxins; note: nearly all actives have a fitted effect of over 60% in size
Condition Parameters: purified TGR, DTNB reduction, TNB absorbance 405 nm; series mostly up to 114 µM
Screen size: about 360,000 compounds; about 11,000 (3.1%) were called active. Another 4% or so got no clear call; they are omitted. Calls come from the whole dose curve; as a rule, active = well fitted inhibition curve with a large enough effect; inconclusive = small, poorly fitted or top-dose-only effect; inactive = no such curve, though single readings can be large or run the other way. This excerpt belongs to a sample that is enriched for actives.
Use one of these outcomes when replying: 1 (yes) (active), 0 (no) (inactive)

CCOc1cc(C2C(C(=O)OC)=C(C)NC3=C2C(=O)c2ccccc23)ccc1O (configuration not stated); 0 (no)
Cc1ccc(CCNC(=O)C2CCN(c3nnc(-n4cccc4CNc4ccc(C)cc4)s3)CC2)cc1; 0 (no)
CCOCCCNC(=O)c1c(NC(=O)c2nc(SC)ncc2Cl)sc2c1CCCC2; 0 (no)
CCOc1ccc(OCC)c(NC(=O)CN(c2ccc(C)cc2)S(=O)(=O)c2c(C)n[nH]c2C)c1; 0 (no)
Cc1cccc(C(=O)NC(=S)N(C)C2CCCCC2)c1; 0 (no)
CCCCN(C(=O)/C=C/c1ccco1)c1c(N)n(CC(C)C)c(=O)[nH]c1=O; 1 (yes)

Kindly consider the entry below.
Which outcome did this test record for the molecule CCN(CCCNC(=O)c1ccc(Sc2ccc(C)cc2)c(NC(C)=O)c1)c1cccc(C)c1 ? 0 (no)

* * *

System Under Test: Schistosoma mansoni thioredoxin glutathione reductase (TGR) (UniProt Q962Y6)
Protocol Notes: qHTS Assay for the Inhibitors of Schistosoma Mansoni Peroxiredoxins; note: nearly all actives have a fitted effect of over 60% in size; note: potency is the fitted concentration of half-maximal effect
Condition Parameters: purified TGR, DTNB reduction, TNB absorbance 405 nm; series mostly up to 114 µM
The campaign covered roughly 360,000 compounds. About 11,000 (3.1%) were called active. Inconclusive results (about 4%) are left out. The sample as a whole holds a higher share of actives than the screen did.
Metric: Potency

Field: example entries. Status: answers known.
Cc1ccc(CN2CCC(CNC(=O)c3cnn(-c4ccccc4Cl)c3C3CCN(C(=O)OC(C)(C)C)CC3)CC2)cc1; inactive
CC(=O)NCC(O)c1ccc([N+](=O)[O-])cc1 (centres undefined); inactive
CCc1ccc(-n2nc(C)c3c(C)cc(=O)n(CC(=O)Nc4ccc(F)cc4C)c32)cc1; inactive
CCOC(=O)c1c(NC(=O)CCl)sc(C(=O)N(CC)CC)c1C; 35.5 µM (active)
Oc1ccc(C2Nc3cccc4cccc(c34)N2)cc1; 14.1 µM (active)
CCCCNC(=O)CSc1nc2cc3c(cc2c(=O)n1CCCCCC(=O)NCc1ccc2c(c1)OCO2)OCO3; inactive
Cc1n[nH]c(=O)c2c(NC(=O)CSc3cc(Cl)ccc3Cl)oc(C)c12; inactive
CNCC(O)c1ccc(O)c(O)c1 (centres undefined); 44.7 µM (active)

Entry under review: CCN1CCN(CCCNC(=O)c2cnn(-c3ccc(C)cc3C)c2C2CCN(C(=O)OC(C)(C)C)CC2)CC1 . Reported Potency? inactive

Entry under review: CCOC(=O)c1sc(NC(=O)CCN2CCOCC2)c(C(=O)OCC)c1C . Reported Potency? inactive

Entry under review: Cc1n[nH]c(=O)c2c(NC(=O)COC(=O)c3ncc(Cl)c(Cl)c3Cl)oc(C)c12 . Reported Potency? 15.8 µM (active)

Entry under review: CN(Cc1ccccc1)C(=O)CCS(=O)(=O)c1cc(Br)cc2c1N(C(=O)C1CC1)CC2 . Reported Potency? inactive

Entry under review: COc1ccc(Cn2ccn(Cc3cccc(OC)c3)c(=O)c2=O)cc1 . Reported Potency? inactive

Entry under review: COc1ccc(Nc2ncc(C(=O)Nc3cc(C)ccc3OC)c3ccccc23)cc1 . Reported Potency? inactive
